- testSystem: talin-R7/R8 (residues 1358–1653) (mouse, UniProt P26039 1358-1653)
- protocolDescription: MST; Atto488-labeled peptide at 50–200 nM, serial dilution of recombinant R7R8 talin; 20 mM Tris-HCl pH 7.5, 200 mM NaCl, 1 mM TCEP, 0.05% Tween-20; Monolith NT.115
- setupConditions: both partners purified
No end group written: not given here.
readoutKind: Kd

What Kd value was documented for this binder, STMFDALADQLDAMLD (peptide, UniProt Q8WXE0 1187-1202, looked up, also: Atto488 label, Caskin2 C-terminal LD motif peptide; limits 1187–1202 are printed for the Caskin2-LD peptide in the legend of the structure; The text names L1183 as a contact residue of the peptide, which lies outside 1187–1202; source: synthetic peptide (MPIB Core Facility)) [Atto488-labeled Caskin2-LD peptide] ?
~2700 nM
